- Protocol Summary: TIMS collisional cross section (CCS, N2) of the lipid ion; higher = larger ion cross section
- Condition Label: sample type: HeLa; ionization mode: positive; one isomer drawn
Recorded TIMS collisional cross section for the following compounds
I only need the number, in Å², no unit after it.

# Compound, Measure Unit, TIMS collisional cross section
data = [
    ("CCCCCCCC/C=C\\CCCCCCCCCC(=O)OC[C@@H](COC(=O)CCCCCCCCCCCCC)OC(=O)CCCCCCC/C=C\\CCCCCCCC [TG 14:0_18:1_20:1] (ion (formula + adduct): [C55H102O6+NH4] 1+)", "Å²", 322.3),
]

Fill in the blank: the reported TIMS collisional cross section of CCCCC/C=C\C/C=C\CCCCCCCCCCCC(=O)OC[C@@H](COC(=O)CCCCCCC/C=C\CCCCCC)OC(=O)CCCCCCC/C=C\CCCCCCCCC [TG 16:1_19:1_22:2] (ion (formula + adduct): [C60H108O6+NH4] 1+) is ____. 332.3
